melting point by entry:

Query: Record request: melting point value, item O=C(c1ccc(NCc2cccnc2)cc1)N1CCC2(CCOCC2)C1
Reply: 113.2 to 114.7 °C

Query: Record request: melting point value, item O=C(c1ccc(NCc2cnccn2)cn1)N1CCC2(CCOCC2)C1
Reply: 123.6 to 124.1 °C

Query: Record request: melting point value, item O=C(c1ccc(NCc2cccnc2)cc1)N1CC2(CCOCC2)C1
Reply: 126.1 to 126.5 °C

###

assayed_system: Vanin-1 enzyme (Homo sapiens, UniProt O95497)
Construct: endogenous in cells
Sequence (O95497 22-513): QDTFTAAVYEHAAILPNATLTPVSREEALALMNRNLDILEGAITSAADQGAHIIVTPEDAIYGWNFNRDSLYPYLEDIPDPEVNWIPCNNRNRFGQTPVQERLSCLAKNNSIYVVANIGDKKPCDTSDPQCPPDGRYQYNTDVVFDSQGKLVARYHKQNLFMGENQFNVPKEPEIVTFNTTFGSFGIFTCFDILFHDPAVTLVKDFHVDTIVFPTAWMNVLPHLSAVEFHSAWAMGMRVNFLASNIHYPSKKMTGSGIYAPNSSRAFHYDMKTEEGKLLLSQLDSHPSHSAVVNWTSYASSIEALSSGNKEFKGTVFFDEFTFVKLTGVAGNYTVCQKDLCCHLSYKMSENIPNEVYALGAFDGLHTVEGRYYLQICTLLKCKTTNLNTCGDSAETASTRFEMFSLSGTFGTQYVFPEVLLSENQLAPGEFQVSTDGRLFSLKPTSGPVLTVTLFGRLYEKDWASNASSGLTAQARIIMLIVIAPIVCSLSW
test_details: Inhibition of Vanin-1 enzyme at the cellular level in ES-2-Fluc cells with bioluminescent probe PA-AL
condition_parameters: 30 min incubation with inhibitor, probe PA-AL 20 μM
assay_endpoint: IC50 (µM)

Query: Record request: IC50 value, item O=C(c1ccc(NCc2cnccn2)cn1)N1CC2(CCOCC2)C1
Reply: 59.6

Query: Record request: IC50 value, item O=C(c1ccc(NCc2cccnc2)cc1)N1CCC2(CCOCC2)C1
Reply: 9.08

Query: Record request: IC50 value, item O=C(c1ccc(NCc2cccnc2)cn1)N1CCC2(CCOCC2)C1
Reply: 35.8

[a] O=C(c1ccc(NCc2cccnc2)cc1)N1CC2(CCOCC2)C1
[b] O=C(c1ccc(NCc2cccnc2)cn1)N1CC2(CCOCC2)C1
Query: Smaller IC50 value, a vs b ? Lab log: write the label of the selected item as the result.
Reply: a
(a: 12.3 µM, b: 22 µM)

[P] O=C(c1ccc(NCc2cnccn2)cc1)N1CC2(CCOCC2)C1
[Q] COc1cc(C(=O)N2CCC3(CCOCC3)C2)ccc1NCc1cccnc1
Query: Higher IC50 between P and Q ? Lab log: write the label of the selected item as the result.
Reply: Q

[A] O=C(c1ccc(NCc2cnccn2)cc1)N1CCC2(CCOCC2)C1
[B] O=C(c1ccc(NCc2cnccn2)cn1)N1CCC2(CCOCC2)C1
[C] COc1cc(C(=O)N2CC3(CCOCC3)C2)ccc1NCc1cccnc1
Query: // smallest IC50 at index 0, largest at the end Give your ranking as a list of the labels in the requested order.
Reply: A, B, C
(A: 16.5 µM, B: 39.8 µM, C: 80.6 µM)
